meta.source: patent US20250000991A1

Molecular target: T1, human Nectin-4-eGFP on T24 cells (clone 3) (human, UniProt Q96NY8 32-510)
T1 sequence: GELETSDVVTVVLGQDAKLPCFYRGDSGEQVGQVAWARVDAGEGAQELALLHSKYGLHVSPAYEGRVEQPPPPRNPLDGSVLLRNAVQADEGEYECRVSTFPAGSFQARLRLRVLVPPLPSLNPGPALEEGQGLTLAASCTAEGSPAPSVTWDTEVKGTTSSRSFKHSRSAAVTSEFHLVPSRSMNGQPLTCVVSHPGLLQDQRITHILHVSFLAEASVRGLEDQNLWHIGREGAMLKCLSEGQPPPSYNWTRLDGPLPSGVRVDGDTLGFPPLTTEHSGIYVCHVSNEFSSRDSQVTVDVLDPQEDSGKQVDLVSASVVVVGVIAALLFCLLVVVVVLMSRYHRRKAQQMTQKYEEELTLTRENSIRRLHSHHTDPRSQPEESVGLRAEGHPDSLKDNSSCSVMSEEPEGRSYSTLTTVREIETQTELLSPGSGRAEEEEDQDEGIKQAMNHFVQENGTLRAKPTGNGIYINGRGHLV
Assay: cell-based or functional assay
Measured attribute: % activity (max GFP signal loss compared to enfortumab mAb (100%))
Answer with the number, then the unit.

Recorded % activity (max GFP signal loss compared to enfortumab mAb (100%)) for Ab6 ADC (Ab6 conjugated as in Formula XI, DAR of 8) (antibody, human IgG1, lambda, L234A L235A, V domains shown, camptothecin analog linker-payload of Formula XI on cysteine thiols after full reduction, DAR of 8 per antibody; positions not given, Antibody-drug conjugate of Ab6; also called Ab6 (ADC column)) VH: QVQLVQSGAEVKKPGASVKVSCKASGYTFTGYYMHWVRQAPGQGLEWMGIINPSGGSTTYAQKFQGRVTMTRDTSTSTVYMELSSLRSEDTAVYYCARGRLGTYFDYWGQGTLVTVSS VL: SYVLTQPPSVSVAPGQTARITCGGNNIGSKSVHWYQQKPGQAPVLVVYDDSDRPSGIPERFSGSNSGNTATLTISRVEAGDEADYYCQVWDRSSDQVVFGGGTKLTVLG , please?
118%

Recorded % activity (max GFP signal loss compared to enfortumab mAb (100%)) for Ab8 ADC (Ab8 conjugated as in Formula XI, DAR of 8) (antibody, human IgG1, lambda, L234A L235A, V domains shown, camptothecin analog linker-payload of Formula XI on cysteine thiols after full reduction, DAR of 8 per antibody; positions not given, Antibody-drug conjugate of Ab8; also called Ab8 (ADC column)) VH: QVQLVQSGAEVKKPGASVKVSCKASGYTFTSYYIHWVRQAPGQGLEWMGIINPISGRTSSAQKFQGRVTMTRDTSTSTVYMELSSLRSEDTAVYYCAKEGVGGELLRAFDIWGQGTLVTVSS VL: QSVLTQPPSVSEAPRQRVTISCSGSSSNIGNNAVNWYQQLPGKAPKLLIYYDDLLPSGVSDRFSGSKSGTSASLAISGLQSEDEADYYCAAWDDSLNGFVFGGGTKLTVLG , please?
125%

Recorded % activity (max GFP signal loss compared to enfortumab mAb (100%)) for Ab3 ADC (Ab3 conjugated as in Formula XI, DAR of 8) (antibody, human IgG1, kappa, L234A L235A, V domains shown, camptothecin analog linker-payload of Formula XI on cysteine thiols after full reduction, DAR of 8 per antibody; positions not given, Antibody-drug conjugate of Ab3; also called Ab3 (ADC column)) VH: EVQLVESGGGLVKPGGSLRLSCAASGFNLNHYNMNWVRQAPGKGLEWVSSVSSGGGFRYYADSVRGRFTISRDNAKNSLYLQMNSLRAEDTAVYYCARGAVFHDAFDIWGQGTLVTVSS VL: DIQLTQSPSFLSASVGDRVTITCRASQDISSYLAWYQQKPGKAPKLLIYVASTLQSGVPSRFSGSGSGTEFTLTISSLQPEDFATYYCQQINSYPFTFGQGTKVEIKR , please?
136%

Recorded % activity (max GFP signal loss compared to enfortumab mAb (100%)) for Ab7 ADC (Ab7 conjugated as in Formula XI, DAR of 8) (antibody, human IgG1, lambda, L234A L235A, V domains shown, camptothecin analog linker-payload of Formula XI on cysteine thiols after full reduction, DAR of 8 per antibody; positions not given, Antibody-drug conjugate of Ab7; also called Ab7 (ADC column)) VH: QVQLVQSGAEVKKPGASVKVSCKASGYTFTNYYMHWVRQAPGQGLEWMGIINPSSGSASYAQKFQGRVTMTRDTSTSTVYMELSSLRSEDTAVYYCAREGVGRDILQAFDIWGQGTLVTVSS VL: QSVLTQPPSVSEAPRQRVTISCSGSSSNIGNNAVNWYQQLPGKAPKLLIYYDDLLPSGVSDRFSGSKSGTSASLAISGLQSEDEADYYCAAWDDSLNGHVFGGGTKLTVLG , please?
126%

Recorded % activity (max GFP signal loss compared to enfortumab mAb (100%)) for Ab4 ADC (Ab4 conjugated as in Formula XI, DAR of 8) (antibody, human IgG1, kappa, L234A L235A, V domains shown, camptothecin analog linker-payload of Formula XI on cysteine thiols after full reduction, DAR of 8 per antibody; positions not given, Antibody-drug conjugate of Ab4; also called Ab4 (ADC column)) VH: QVQLQESGPGLVKPSETLSLTCTVSGGSISGYYWSWIRQPPGKGLEWIGYIYYSGSTNYNPSLKSRVTISVDTSKNQFSLKLSSVTAADTAVYYCARLGIFFDAFDIWGQGTLVTVSS VL: DIQLTQSPSFLSASVGDRVTITCRASQGISSYLAWYQQKPGKAPKLLIYAASTLQSGVPSRFSGSGSGTEFTLTISSLQPEDFATYYCQQFNSYPWTFGQGTKVEIKR , please?
143%
